This collection of values is drawn from PubChem BioAssay AID1376.

Target: Bifunctional protein GlmU (Mycobacterium tuberculosis (strain ATCC 25618 / H37Rv))
Test: inhibition of mycobacterial GlmU enzyme – biochemical, glucosamine-1-phosphate acetyltransferase (AID 1376);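 note: 0% = complete reaction with vehicle and 100% = reaction without substrate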
Conditions: M. tuberculosis GlmU acetyltransferase enzyme assay; hits give high values;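 tested at 30 µM in the primary screen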
Out of some 220,000 compounds screened, about 530 (0.24%) were called active. The entries come from a sample that favours actives as a whole. Entries with a potency or affinity are not part of this list.
Metric Name: inhibition (%)
Respond numerically; units are % and should not be typed.

Before answering, review these 5 worked examples.
[
  {
    "Molecule": "O=C(Cc1ccccc1[N+](=O)[O-])NCc1ccc2c(c1)OCO2",
    "Recorded Measurement": 14
  },
  {
    "Molecule": "c1ccc(CSc2nnc(-c3ccco3)n2Cc2ccco2)cc1",
    "Recorded Measurement": 13
  },
  {
    "Molecule": "O=C(CSc1ccc(Cl)cc1)NN=C1CCCCCC1",
    "Recorded Measurement": 0.28
  },
  {
    "Molecule": "COC(=O)c1c(C)oc2cc(Br)c(OCC(=O)C(C)(C)C)cc12",
    "Recorded Measurement": -1.38
  },
  {
    "Molecule": "COc1ccc(Nc2ccccc2C(=O)O)cc1",
    "Recorded Measurement": -1.06
  }
]

Would you please give the reported inhibition of `c1ccc(CSc2nnc(-c3cccs3)n2Cc2ccco2)cc1` with Bifunctional protein GlmU (Mycobacterium tuberculosis (strain ATCC 25618 / H37Rv))?
-1.39

Would you please give the reported inhibition of `FC(F)(F)c1ccccc1NC(=S)N1CCN(Cc2ccc3c(c2)OCO3)CC1` with Bifunctional protein GlmU (Mycobacterium tuberculosis (strain ATCC 25618 / H37Rv))?
-0.82

Would you please give the reported inhibition of `CSc1nsc(/C=C/Nc2ccc(C(=O)O)cc2)c1C#N` with Bifunctional protein GlmU (Mycobacterium tuberculosis (strain ATCC 25618 / H37Rv))?
-2.44

Would you please give the reported inhibition of `Cc1ccc(NC(=O)NCc2c(C)nn(C)c2C)cc1Cl` with Bifunctional protein GlmU (Mycobacterium tuberculosis (strain ATCC 25618 / H37Rv))?
2.69
